- MEASURED TARGET: T1, SARS‐CoV‐2 spike membrane protein of the Delta variant (B.1.617.2) (SARS-CoV-2, Delta variant B.1.617.2, strain)
- T1 construct: also called Delta spike protein
- TEST DETAILS: flow cytometry on cells
- COND: one partner purified
OBSERVATION TYPE: MdFI
Lab note: record just the number, no unit beside it.

{"BINDER": "S2H97 (antibody, V domains shown) VH: QVRLVQSGAEVKKSGESLKISCKGSGYSFTSYWIGWVRQMPGKGLEWMGIIYPGDSDTRYSPSFQGQVTISADKSISTVYLQWSSLKASDTAMYYCARQWSHYTYDYYYWGQGTLVTISS VL: QSVLTQPASVSGSPGQSITISCTGISSDVGGYNSVSWYQQHPGKAPKLMIYDVTNRPSGVSNRFSGSKSGNTASLTISGLQAEDEADYYCSSYTSSSTPPYVFGTGTKVSVL", "MdFI": 74000}

Inquiry: Record request: MdFI value, item CT‐P59 (Regdanivimab) (antibody, V domains shown, also called Regdanvimab; Regkirona) VH: QITLKESGPTLVKPTQTLTLTCSFSGFSLSTSGVGVGWIRQPPGKALEWLALIDWDDNKYHTTSLKTRLTISKDTSKNQVVLTMTNMDPVDTATYYCARIPGFLRYRNRYYYYGMDVWGQGTTVTVSS VL: ELVLTQPPSVSAAPGQKVTISCSGSSSNIGNNYVSWYQQLPGTAPKLLIYDNNKRPSGIPDRFSGSKSGTSATLGITGLQTGDEADYYCGTWDSSLSAGVFGGGTELTVL
Reply text: 233000
